- Protocol summary: FRAP (Ferric Reducing Antioxidant Power) assay
- Type: biochemical
- Test context: at 200 µM, 30 min, 593 nm
Reported FRAP Assay (%) at 200 µM values for a set of compounds
Your answer should be a plain number; it is taken to be in %.

# Chemical string, FRAP Assay (%) at 200 µM
records = [
    ("COc1cc(/C=C/C(O)=C/C(=O)C(F)(F)F)ccc1F", 3.1),
    ("O=C(/C=C(O)/C=C/c1ccc(O)cc1F)c1ccccc1", 14.3),
    ("O=C(/C=C(O)/C=C/c1cc(F)c(O)cc1F)C(F)(F)F", 11.3),
    ("O=C(/C=C(O)/C=C/c1ccc(O)c(F)c1)c1ccccc1", 31.0),
]

Below: the item to evaluate.
QUERY: Recorded FRAP Assay (%) at 200 µM for COc1cc(/C=C/C(O)=C/C(=O)C(F)(F)F)ccc1O , please?
RESULT: 61.4
